- Assay details: Plasma concentrations (PK), Example 1
- Format: in vivo, human
- Experimental conditions: human, plasma, oral, 100 mg, weight >90 kg, 100 mg QD, Week 16, Trough; read-out: Plasma concentration, Geometric Mean
Recorded metric: level at 2688 h (ng/mL)
Give the quantity in ng/mL, number only.

Consider the compound shown here: CC(=O)NCCCC[C@@H]1NC(=O)[C@H](Cc2c[nH]c3c(C)cccc23)NC(=O)[C@H]([C@@H](C)O)NC(=O)[C@H](CC(N)=O)NC(=O)[C@@H](NC(C)=O)C(C)(C)SSC(C)(C)[C@@H](C(=O)N[C@@H](Cc2ccc(OCCN)cc2)C(=O)N[C@@H](Cc2ccc3ccccc3c2)C(=O)NC2(C(=O)N[C@@H](CCC(=O)O)C(=O)N[C@@H](CC(N)=O)C(=O)N[C@@H](Cc3cccnc3)C(=O)N(C)CC(N)=O)CCOCC2)NC1=O [IL-23 receptor antagonist peptide] What is its recorded level at 2688 h?
0.102
